Item-by-item account of MIC
system: Aspergillus flavus; experiment: Antifungal activity against Aspergillus flavus after 24 hrs by two fold serial dilution based spectrophotometric analysis; format: functional
Note: state the figure and append the unit.

These recorded examples may help you get a feel for the data.
INSERT INTO assay_data (structure_as_smiles, result) VALUES
  ('CCOc1ccc2c(c1)sc1nc(-c3ccccc3)c(COCCCn3cncn3)n12', '64 µg/mL'),
  ('CCOc1ccc2c(c1)sc1nc(-c3ccccc3)c(COCCCCCn3c([N+](=O)[O-])cnc3C)n12', '128 µg/mL'),
  ('BrCCCCCOCc1c(-c2ccccc2)nc2sc3ccccc3n12', '16 µg/mL'),
  ('Cc1ncc([N+](=O)[O-])n1CCCCCCCCCCOCc1c(-c2ccccc2)nc2sc3ccccc3n12', '16 µg/mL');

Lab note: next compound to report on.
Exercise: Supply measured MIC of CCOc1ccc2c(c1)sc1nc(-c3ccccc3)c(COCCCCCCCCCCBr)n12 in your reply.
Solution: 512 µg/mL
